Numbers sourced from the kinase profiling compilation of Christmann-Franck et al. (2016).

TARGET OF ASSAY: IKBKB (human) (UniProt O14920)
Sequence (O14920 whole entry, looked up): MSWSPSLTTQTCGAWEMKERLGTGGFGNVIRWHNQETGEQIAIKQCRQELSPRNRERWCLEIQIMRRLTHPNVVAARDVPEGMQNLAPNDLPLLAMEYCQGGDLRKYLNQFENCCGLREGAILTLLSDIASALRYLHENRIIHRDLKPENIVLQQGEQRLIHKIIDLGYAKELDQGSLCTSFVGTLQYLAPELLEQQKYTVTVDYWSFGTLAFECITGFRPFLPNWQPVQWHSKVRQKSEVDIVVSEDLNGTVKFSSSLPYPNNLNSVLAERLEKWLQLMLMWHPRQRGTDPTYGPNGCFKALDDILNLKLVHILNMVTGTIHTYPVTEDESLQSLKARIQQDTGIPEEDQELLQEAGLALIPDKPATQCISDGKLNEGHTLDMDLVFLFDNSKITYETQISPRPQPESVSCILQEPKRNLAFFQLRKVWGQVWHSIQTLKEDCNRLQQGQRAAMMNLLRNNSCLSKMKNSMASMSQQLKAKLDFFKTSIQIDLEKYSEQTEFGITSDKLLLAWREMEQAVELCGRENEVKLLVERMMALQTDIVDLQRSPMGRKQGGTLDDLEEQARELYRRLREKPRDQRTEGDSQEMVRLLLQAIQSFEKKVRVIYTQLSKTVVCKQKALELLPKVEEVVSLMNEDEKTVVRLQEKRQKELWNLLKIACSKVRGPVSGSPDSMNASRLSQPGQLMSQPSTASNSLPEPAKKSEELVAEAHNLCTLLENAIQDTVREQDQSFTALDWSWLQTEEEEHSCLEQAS
METHOD DESCRIPTION: KINOMEscan competition binding
RUN PARAMETERS: compound 10.0 µM
Reported kinase still bound, per cent of control values follow for various compounds
Kindly answer with a numeric value in %, unit omitted.

Below, each entry is followed by its recorded kinase still bound, per cent of control result.
C[C@@H](Oc1cc(-c2cnn(C3CCNCC3)c2)cnc1N)c1c(Cl)ccc(F)c1Cl = 14
O=C(Nc1cccc(Nc2ncc(Br)c(NCCc3cnc[nH]3)n2)c1)N1CCCC1 = 8.4
COCC(=O)NC/C=C/c1ccc2ncnc(Nc3ccc(Oc4ccc(C)nc4)c(C)c3)c2c1 = 100

Exercise: Let me know recorded kinase still bound, per cent of control for `CCN1CCN(C(=O)Cc2ccc(Nc3ncc(F)c(Nc4ccc(C(=O)Nc5ccccc5Cl)cc4)n3)cc2)CC1` , thanks.
Key: 27

Exercise: Let me know recorded kinase still bound, per cent of control for `Cc1n[nH]c2ccc(-c3cncc(OC[C@@H](N)Cc4c[nH]c5ccccc45)c3)cc12` , thanks.
Key: 34

Exercise: Let me know recorded kinase still bound, per cent of control for `O=c1cc(N2CCOCC2)oc2c(-c3cccc4c3sc3ccccc34)cccc12` , thanks.
Key: 100
